For each record, write down the corresponding pKd.
Molecular target: fTI, fluorescently labelled H14 foldamer TI
Experiment: fluorescence polarisation; direct FP: S100 protein diluted in 50 nM labeled foldamer, 20 mM HEPES pH 7.5, 150 mM NaCl, 1 mM CaCl2, 0.5 mM TCEP, 0.01% Tween20; quadratic fit (ProFit); detection threshold Kd 1 mM
pKd: −log10 of the molar value.

Q: Need pKd of S100A13 (natural protein) MAAEPLTELEESIETVVTTFFTFARQEGRKDSLSVNEFKELVTQQLPHLLKDVGSLDEKMKSLDVNQDSELKFNEYWRLIGELAKEIRKKKDLKIRKK , thanks.
A: < 3.00

Q: # pKd lookup, item S100Z (natural protein) MPTQLEMAMDTMIRIFHRYSGKERKRFKLSKGELKLLLQRELTEFLSCQKETQLVDKIVQDLDANKDNEVDFNEFVVMVAALTVACNDYFVEQLKKKGK
A: < 3.00

Q: Consider the binder shown here: S100P (natural protein) MTELETAMGMIIDVFSRYSGSEGSTQTLTKGELKVLMEKELPGFLQSGKDKDAVDKLLKDLDANGDAQVDFSEFIVFVAAITSACHKYFEKAGLK What is its recorded pKd?
A: < 3.00

Q: Form field: reported pKd of S100A12 (natural protein) MTKLEEHLEGIVNIFHQYSVRKGHFDTLSKGELKQLLTKELANTIKNIKDKAVIDEIFQGLDANQDEQVDFQEFISLVAIALKAAHYHTHKE
A: < 3.00

Q: Find the recorded pKd belonging to S100A16 (natural protein) MSDCYTELEKAVIVLVENFYKYVSKYSLVKNKISKSSFREMLQKELNHMLSDTGNRKAADKLIQNLDANHDGRISFDEYWTLIGGITGPIAKLIHEQEQQSSS and report it.
A: < 3.00

Q: # lookup: pKd of S100G (natural protein) MSTKKSPEELKRIFEKYAAKEGDPDQLSKDELKLLIQAEFPSLLKGPNTLDDLFQELDKNGDGEVSFEEFQVLVKKISQ
A: < 3.00

Q: What value of measured pKd is listed for S100A14 (natural protein) MGQCRSANAEDAQEFSDVERAIETLIKNFHQYSVEGGKETLTPSELRDLVTQQLPHLMPSNCGLEEKIANLGSCNDSKLEFRSFWELIGEAAKSVKLERPVRGH ?
A: < 3.00

Q: Report pKd for S100A3 (natural protein) MARPLEQAVAAIVCTFQEYAGRCGDKYKLCQAELKELLQKELATWTPTEFRECDYNKFMSVLDTNKDCEVDFVEYVRSLACLCLYCHEYFKDCPSEPPCSQ please.
A: < 3.00

Q: Please report the recorded pKd for S100A9 (natural protein) MTCKMSQLERNIETIINTFHQYSVKLGHPDTLNQGEFKELVRKDLQNFLKKENKNEKVIEHIMEDLDTNADKQLSFEEFIMLMARLTWASHEKMHEGDEGPGHHHKPGLGEGTP .
A: < 3.00

Q: What pKd value was documented for this binder, S100A8 (natural protein) MLTELEKALNSIIDVYHKYSLIKGNFHAVYRDDLKKLLETECPQYIRKKGADVWFKELDINTDGAVNFQEFLILVIKMGVAAHKKSHEESHKE ?
A: < 3.00

Q: Form field: reported pKd of S100A5 (natural protein) METPLEKALTTMVTTFHKYSGREGSKLTLSRKELKELIKKELCLGEMKESSIDDLMKSLDKNSDQEIDFKEYSVFLTMLCMAYNDFFLEDNK
A: 3.57
